- tgt: SERT (Homo sapiens, UniProt P31645)
- Construct: expressed in transfected cells
- Sequence (P31645 whole entry, species assumed): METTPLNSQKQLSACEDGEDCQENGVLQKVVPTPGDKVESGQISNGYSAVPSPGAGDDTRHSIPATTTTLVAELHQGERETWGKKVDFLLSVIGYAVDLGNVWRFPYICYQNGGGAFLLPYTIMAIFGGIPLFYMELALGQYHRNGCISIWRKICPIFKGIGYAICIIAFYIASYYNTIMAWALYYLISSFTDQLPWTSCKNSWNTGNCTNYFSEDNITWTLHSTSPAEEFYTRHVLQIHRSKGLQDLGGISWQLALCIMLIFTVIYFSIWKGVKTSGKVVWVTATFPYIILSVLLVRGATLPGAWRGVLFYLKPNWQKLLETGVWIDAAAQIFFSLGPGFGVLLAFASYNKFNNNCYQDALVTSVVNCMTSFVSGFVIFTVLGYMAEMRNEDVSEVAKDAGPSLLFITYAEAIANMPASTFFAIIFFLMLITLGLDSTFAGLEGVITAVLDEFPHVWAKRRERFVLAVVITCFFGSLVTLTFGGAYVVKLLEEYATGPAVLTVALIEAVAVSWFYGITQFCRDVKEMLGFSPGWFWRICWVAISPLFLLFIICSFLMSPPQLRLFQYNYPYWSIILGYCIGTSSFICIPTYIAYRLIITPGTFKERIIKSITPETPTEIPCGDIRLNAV
- protocol summary: SERT Inhibition Assay (Neurotransmitter Transportation Fluorescence assay)
- Assay type: cell-based
- measurement setup: SERT assay, ratio to compound 0001
Measured IC50 Ratio to (−) Mesembrine, listed per entry for reference.

| smiles input | IC50 Ratio to (−) Mesembrine |
| --- | --- |
| COc1ccc([C@@]23CC[C@@H](O)C[C@@H]2N(C)CC3)cc1OC | ≥1.0 |
| COc1cc([C@@]23CC[C@H](O)C[C@@H]2N(C)CC3)ccc1OC(F)F | ≤0.5 |
| CCN1CC[C@]2(c3ccc(OC)c(OC)c3)CC[C@H](O)C[C@H]12 | ≥100 |
| COc1ccc([C@@]23CC[C@H](O)C[C@@H]2N(C)CC3)cc1OC | ≥1.0 |

The measurements presented in this section are drawn from patent US20250011281A1.
